Origin of the recorded values: the supplement of paper PMC12764529

# Protocol Summary: folding stability dG unfold from chymotrypsin proteolysis; higher = more stable
Kind request: treat 3 kJ/mol as inclusive, so folding stability dG unfold at 3 kJ/mol or higher is Criterion met, anything lower is Criterion not met.

Confirm if folding stability dG unfold reported for the sequence SAGGEVKVEIEVELNEDGTLRVRARVEVRVDGELVTVEVEIEVRLEPAPPPAPPPVLVVDPETGEILSAGGS [r8_269_TrROS_Hall] is 3 kJ/mol or above.
Criterion met

Please check the record SAGGSKPKTVEITLEVDGKKVKITVTEKDGKLTVTITFPDGTKLTIELPENMSIEEALKKALEALKSAGGSA [r2_92_TrROS_Hall] and state if its folding stability dG unfold is at or above 3 kJ/mol.
Criterion met

In plain terms: is recorded folding stability dG unfold at least 3 kJ/mol for SAGGSAGGSASTITITTPSGEKVKVTLTSLPTPTTLATITVTSTGKTYTIVIAPDGTITLASAGGSAGGSAG [r3_15_JUSTAS] ?
Criterion met

Form field: folding stability dG unfold at least 3 kJ/mol? Entry: SAGGSAGGSAGMTVEEFTIPEVGGRVIRTTVEEPTEDGVVVRRRYLILVNPDGTVERRPESAGGSAGGSAGG [r11_911_JUSTAS]
Criterion not met

Does the sequence SSKTVTVTTEEEEKEAREKIKELVKPGKSVDVEITMTGPDGTRTRRTYKITTNPDGTITIEETETPLPPPSA [r9_1023_JUSTAS] have recorded folding stability dG unfold that is 3 kJ/mol or more?
Criterion met

Reported folding stability dG unfold reaches at least 3 kJ/mol for SGATVTVSKDGRTYTVTVSPNATVTVEVRDPTSTSTYTQTVPPGQPTTVSLPLPSDVSSSVTIASIDVGASA [r9_1152_JUSTAS] ?
Criterion not met

Check the entry SAGGSAGGSAGGMPIPVTITVSDPATGTTKVVKTVLVTSPEKLEEVISKLPEGKKYTVVESAGGSAGGSAGG [r7_307_JUSTAS] : does folding stability dG unfold equal or exceed 3 kJ/mol?
Criterion not met
